# study.system: human NK1 receptor (Homo sapiens)
# Sequence (P25103 whole entry): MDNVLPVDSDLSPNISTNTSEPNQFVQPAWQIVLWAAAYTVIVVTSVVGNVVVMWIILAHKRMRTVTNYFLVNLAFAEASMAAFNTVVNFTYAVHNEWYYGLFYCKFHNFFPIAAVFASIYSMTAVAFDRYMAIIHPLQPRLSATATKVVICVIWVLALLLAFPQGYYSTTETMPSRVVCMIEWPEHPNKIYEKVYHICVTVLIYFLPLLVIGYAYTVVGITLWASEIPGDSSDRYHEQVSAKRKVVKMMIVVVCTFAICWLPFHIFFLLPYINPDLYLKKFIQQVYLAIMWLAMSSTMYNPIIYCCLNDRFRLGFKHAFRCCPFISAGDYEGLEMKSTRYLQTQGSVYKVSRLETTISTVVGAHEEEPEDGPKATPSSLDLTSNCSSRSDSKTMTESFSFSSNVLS
# procedure.details: Binding power to NK1 receptors in vitro ([3H]-Substance P displacement, CHO cell membranes)
# Parameters: expressed in transfected cells; host or cells: CHO cells (membrane preparation)
# condition: human NK1 receptor in CHO membranes, ligand [3H]-Substance P; read-out: pKi (NK1) (converted)
measured.parameter: Ki (nM)

Here is how some molecules turned out for Ki.
molecule | Ki / nM
CC(=O)OC[C@@H](OC(C)=O)[C@H](c1ccco1)N1CCN(CC[C@H](CN(C)C(=O)c2cc(C#N)cc3ccccc23)c2ccc(Cl)c(Cl)c2)CC1 | 6.31
CN(CC(CCN1CCN(C(Cc2ccccc2)C(O)CO)CC1)c1ccc(Cl)c(Cl)c1)C(=O)c1cc(C#N)cc2ccccc12 (stereo not shown) | 10

I = CC(=O)OCC(O)C(Cc1ccccc1)N1CCN(CCC(CN(C)C(=O)c2cc(C#N)cc3ccccc23)c2ccc(Cl)c(Cl)c2)CC1 (stereo not shown)
II = COc1ccc([C@@H]([C@H](O)CO)N2CCN(CC[C@H](CN(C)C(=O)c3cc(C#N)cc4ccccc34)c3ccc(Cl)c(Cl)c3)CC2)cc1
Compare I and II and name the one whose reported Ki is smaller. State your choice using its label.
II
